Test system: K-562 leukemia
Assay: NCI-60 one-dose screen, 48 h
Conditions: 10 µM unless noted
Compounds without any hit were thinned out: in the full panel of roughly 83,000, 20% have a hit. Calls of active or inactive are those of the source. Rule for the calls: active = growth percent below 10; inactive = the rest.
Answer with one of the outcomes given here: active, inactive

Recorded results for 2 compounds are shown here.
{"columns": ["compound", "tgt", "category"],
 "data": [
  ["COc1ccc(/C=C2\\CCCC3=C2N=C2SC(C)=NN2C3c2ccc(OC)c(OC)c2)cc1OC (stereo not drawn)", "K-562 leukemia", "inactive"],
  ["CCCCCCCCCCCCCCC(C(=O)OCC)C(=O)OCC", "K-562 leukemia", "inactive"]
]}

Returns: the outcome recorded for COc1ccc(-c2nsc3c2NC(=O)CC3c2cccc(F)c2)cc1 (stereo not drawn) in this assay.
inactive

I would be grateful if you could indicate the recorded call for "C=CCN(CCOC(=O)c1ccc([N+](=O)[O-])cc1)CCOC(=O)c1ccc([N+](=O)[O-])cc1" .
inactive

What outcome does the record of this test show for "CC(C)(C)CC(C)(C)NCc1cc(C(C)(C)C)cc(CNC(C)(C)CC(C)(C)C)c1O" ?
active

In this assay, the call recorded for "C=CCn1c(C)nc2cc(Nc3nc(Nc4ccc5nc(C)n(CC=C)c5c4)nc4ccccc34)ccc21" was what?
inactive

Record request — test call for "COCCn1c(Nc2ccc(C(=O)NO)cc2)nc2ccccc21"
inactive

Dear all, I need the recorded test outcome for "COc1cccc(Cn2c(-c3nonc3NC(C)=O)nc3ccccc32)c1" , thank you.
inactive

Entry "FC(F)(F)C1=NNC(c2ccc3ccccc3c2)=NN1" : call = ?
inactive

Given "CC(=O)c1cc(C(=O)c2ccc3c(c2)Sc2ccccc2N3)c2c(C)cccn12" , state the outcome it received in this test.
active

Which outcome was assigned to "COCCOCCOCc1n(Cc2ccc3ccccc3n2)c2ccccc2[n+]1Cc1ccc2ccccc2c1" in this test?
active

Tell me the recorded outcome of this test for "Cc1cc(C)c2c(NC(=O)Nc3ccc(Cl)c(Cl)c3)n[nH]c2n1" .
inactive

Hi team, can someone confirm the assay call for "C#CC[C@@H]1C[C@]2(C)[C@H]3CC=C4[C@H]5[C@@H](C)[C@H](C)CC[C@]5(C(=O)NCCCCN)CC[C@@]4(C)[C@]3(C)CC[C@H]2C(C)(C)[C@H]1OC(C)=O" ?
active

What is the recorded call for this compound in the test? "COc1ccc(-c2[nH]nc(N)c2-c2cc(OC)c(OC)c(OC)c2)cc1"
active

Per the records of this test, what outcome belongs to "NC(N)=N/N=C\c1ccc(OCc2ccccc2)cc1" ?
inactive

Assay outcome for "COc1ccc(C(=O)/C=C/c2cn(-c3ccccc3)nc2-c2cccc(Nc3ccnc4cc(Cl)ccc34)c2)cc1" : what was it?
inactive

Could you please tell me the result logged for "Cc1ccc2nc(CN(CCN(Cc3nc4ccc(C)cc4[nH]3)Cc3nc4ccc(C)cc4[nH]3)Cc3nc4ccc(C)cc4[nH]3)[nH]c2c1" in this assay?
active

What call does the record list for "COc1cc2cc(C(=O)Nc3ccccc3)c(N)nc2cc1OC" ?
active

Per the assay record, what outcome was assigned to "C=CCn1c(SCC(=O)Nc2ccc(C(=O)/C=C/c3ccccc3)cc2)nnc1-c1ccc(OC)c(OC)c1" ?
inactive

# lookup: test call for "NNC(=O)Cc1ccccc1"
inactive

Just curious, what result did "CCN1CCN(Cc2ccc(NC(=O)c3nc4ccc5[nH]ncc5c4c4c3CCCC4)cc2C(F)(F)F)CC1" get here?
active
